// reported T/C per item
System: L1210 leukemia ip in BDF1 mice, survival T/C
Assay: NCI In Vivo Anticancer Drug Screen. Data for tumor model L1210 Leukemia (intraperitoneal) in B6D2F1 (BDF1) mice
Settings: endpoint: mean survival time; dose: 200.0 mg/kg/injection; schedule: Q04DX003 (ip); vehicle: Klucel (hydroxypropylcellulose) (HPC); higher = longer survival
Toxic doses and inconclusive results are not listed.

{"columns": ["Compound", "Assay target", "T/C"],
 "data": [
  ["Cc1cc(C)c(NC(=O)Nc2ccccc2)c(C)c1", "L1210 leukemia ip in BDF1 mice, survival T/C", "98 % of control"],
  ["CCOC(=O)C(C)(Br)C(Br)c1ccc([N+](=O)[O-])cc1 (stereo unspecified)", "L1210 leukemia ip in BDF1 mice, survival T/C", "101 % of control"],
  ["CC(C)Nc1nc(NC(C)C)nc(NC(C)C)n1", "L1210 leukemia ip in BDF1 mice, survival T/C", "87 % of control"],
  ["CCOC(=O)C(=Cc1ccccc1Cl)C(=O)OCC", "L1210 leukemia ip in BDF1 mice, survival T/C", "90 % of control"],
  ["Cc1ccc(NC(=O)c2ccccc2Cl)cc1Cl", "L1210 leukemia ip in BDF1 mice, survival T/C", "95 % of control"],
  ["O=S(=O)(O)c1ccc(O)cc1", "L1210 leukemia ip in BDF1 mice, survival T/C", "124 % of control"],
  ["CC(=O)OC1CCC2(C)C(CCC3(C)C2CC=C2C4C(C)C(C)CCC4(C)CCC23C)C1(C)C (stereo unspecified)", "L1210 leukemia ip in BDF1 mice, survival T/C", "88 % of control"],
  ["CCCCCCCCCC(=O)CCCCCC", "L1210 leukemia ip in BDF1 mice, survival T/C", "103 % of control"],
  ["CCCCNC(=S)NCCCN(C)C", "L1210 leukemia ip in BDF1 mice, survival T/C", "98 % of control"],
  ["CCCCOC(=O)CC(=O)OCCCC", "L1210 leukemia ip in BDF1 mice, survival T/C", "95 % of control"],
  ["CCOC(=O)c1ccc(=O)[nH]c1", "L1210 leukemia ip in BDF1 mice, survival T/C", "98 % of control"],
  ["CC(O)COc1ccc(OCc2ccccc2)cc1 (stereo unspecified)", "L1210 leukemia ip in BDF1 mice, survival T/C", "100 % of control"],
  ["CC(=O)OCCCCBr", "L1210 leukemia ip in BDF1 mice, survival T/C", "91 % of control"],
  ["CCc1cc(C)cc(OC(=O)Nc2ccc(Cl)c(Cl)c2)c1", "L1210 leukemia ip in BDF1 mice, survival T/C", "90 % of control"],
  ["CC(=O)Nc1ccc(S(=O)(=O)N(CCO)c2ccccc2)cc1", "L1210 leukemia ip in BDF1 mice, survival T/C", "90 % of control"],
  ["O=C1OCCN1C(=O)c1ccc([N+](=O)[O-])cc1", "L1210 leukemia ip in BDF1 mice, survival T/C", "98 % of control"]
]}

* * *

Tested on: L1210 leukemia ip in BDF1 mice, survival T/C
Assay: NCI In Vivo Anticancer Drug Screen. Data for tumor model L1210 Leukemia (intraperitoneal) in B6D2F1 (BDF1) mice
Details: endpoint: mean survival time; dose: 100.0 mg/kg/injection; schedule: Q01DX009 (ip); vehicle: saline; higher = longer survival
Inconclusive results and toxic doses are left out.
// reported T/C per item

{"columns": ["Molecule", "T/C"],
 "data": [
  ["COc1cc(N)c2ncsc2c1", "97 % of control"],
  ["NC(N)=Nc1ccc(C(=O)Oc2ccc([N+](=O)[O-])cc2Cl)cc1", "87 % of control"],
  ["CC1(c2ccco2)NC(=O)N(Cl)C1=O (stereo not given)", "88 % of control"],
  ["CC(C)(C)C1CCC(Br)C(Cl)C1 (stereo not given)", "98 % of control"],
  ["O=S(O)OS(=O)O", "93 % of control"],
  ["CCOC(=O)C(OCc1ccccc1)(C(=O)OCC)C(C)C", "97 % of control"],
  ["NC(=O)NC1OC(CO)C(O)C(O)C1O (stereo not given)", "95 % of control"],
  ["C#CCOCC1CN(C)C(=O)O1 (stereo not given)", "100 % of control"],
  ["O=c1ccn2c(n1)OC1C(O)C(CO)OC12 (stereo not given)", "97 % of control"],
  ["NC1CC[N-]CC1.NC1CC[N-]CC1.[Cl][Pt+2]([Cl])([Cl])[Cl]", "101 % of control"],
  ["CC(C)NC(=O)/C=C/C(=O)O", "92 % of control"],
  ["CN(C)c1cc(F)c(C=O)cc1[N+](=O)[O-]", "100 % of control"],
  ["CCC(C)C(CCCN1CCCCC1)(CNC(=O)CN(CC)CC)c1cccc2ccccc12 (stereo not given)", "103 % of control"],
  ["COc1ccc2c(C)[n+]3ccc4cc(OC)c(OC)cc4c3cc2c1 (tested in a mixture with another compound)", "115 % of control"],
  ["O=CN1CCCc2cc(C(=O)O)ccc21", "90 % of control"],
  ["C=CCNc1ncnc2c1cnn2C", "103 % of control"],
  ["CN(CCN(C)Cc1ccccc1)Cc1ccccc1", "101 % of control"],
  ["CC(=O)OCCCCBr", "100 % of control"],
  ["N#[N+]c1c(C(=O)O)[nH]c(=O)[nH]c1=O", "103 % of control"],
  ["CC(N)c1ccccc1 (stereo not given) (tested in a mixture with another compound)", "90 % of control"]
]}

Hello, the source for this data is PubChem BioAssay AID248, in case you need it.
